B1: TPR t1 (parent)
chain: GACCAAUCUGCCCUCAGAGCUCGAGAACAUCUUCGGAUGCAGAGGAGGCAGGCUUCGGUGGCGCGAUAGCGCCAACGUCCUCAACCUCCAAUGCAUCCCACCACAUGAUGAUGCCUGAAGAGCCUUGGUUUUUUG

Variants of: B1
Assay: polymerase ribozyme fitness, log enrichment relative to wild type (log ratio); higher = more active; in vitro selection for triplet polymerase activity
Hi, to clarify the labels: T covers polymerase ribozyme fitness (log ratio) from -2 upward, F covers anything below -2.

Consider the worked cases shown below.
1. A46U G52U G71U C123A    F
2. C76U C94A U106C U112C    T
3. U21C G23A G44C G48A A90U C97G C101U C102U C114A    F
4. G60C U112G U116C    F
5. C8G C13A A91G U106G G117U    F
6. A41G G51A A90C    F
7. U7A A27C C49U U55G    F
8. C11G C20U    T
9. C11U A18G    F
10. A6C U30G G61U A84C U112A    F

Q: Please check the record C4G U32C G45U and state if its polymerase ribozyme fitness (log ratio) is at or above -2.
Ans: F

Q: Please check the record C72G U81G C97U and state if its polymerase ribozyme fitness (log ratio) is at or above -2.
Ans: F

Q: Please check the record C56A C64U and state if its polymerase ribozyme fitness (log ratio) is at or above -2.
Ans: T

Q: Please check the record C12A C53A G61U U109G G117C U125A U126C and state if its polymerase ribozyme fitness (log ratio) is at or above -2.
Ans: F

Q: Please check the record A27U A37C A91G C94U U106C and state if its polymerase ribozyme fitness (log ratio) is at or above -2.
Ans: F

Q: Please check the record C4U C85U and state if its polymerase ribozyme fitness (log ratio) is at or above -2.
Ans: T

Q: Please check the record U7A C15A A41C C70U and state if its polymerase ribozyme fitness (log ratio) is at or above -2.
Ans: F

Q: Please check the record G10U A90G and state if its polymerase ribozyme fitness (log ratio) is at or above -2.
Ans: T

Q: Please check the record A18C G42U G69C and state if its polymerase ribozyme fitness (log ratio) is at or above -2.
Ans: F

Q: Please check the record U92G C123A and state if its polymerase ribozyme fitness (log ratio) is at or above -2.
Ans: F

Values compiled from the RNAGym collection of RNA variant scans (doi:10.1073/pnas.2313332121).
